Would you kindly list SHP-1 Activity (% of control) for each of these molecules?
- System Tested: Recombinant SHP-1 protein (Homo sapiens, UniProt P29350)
- Sequence (P29350 whole entry): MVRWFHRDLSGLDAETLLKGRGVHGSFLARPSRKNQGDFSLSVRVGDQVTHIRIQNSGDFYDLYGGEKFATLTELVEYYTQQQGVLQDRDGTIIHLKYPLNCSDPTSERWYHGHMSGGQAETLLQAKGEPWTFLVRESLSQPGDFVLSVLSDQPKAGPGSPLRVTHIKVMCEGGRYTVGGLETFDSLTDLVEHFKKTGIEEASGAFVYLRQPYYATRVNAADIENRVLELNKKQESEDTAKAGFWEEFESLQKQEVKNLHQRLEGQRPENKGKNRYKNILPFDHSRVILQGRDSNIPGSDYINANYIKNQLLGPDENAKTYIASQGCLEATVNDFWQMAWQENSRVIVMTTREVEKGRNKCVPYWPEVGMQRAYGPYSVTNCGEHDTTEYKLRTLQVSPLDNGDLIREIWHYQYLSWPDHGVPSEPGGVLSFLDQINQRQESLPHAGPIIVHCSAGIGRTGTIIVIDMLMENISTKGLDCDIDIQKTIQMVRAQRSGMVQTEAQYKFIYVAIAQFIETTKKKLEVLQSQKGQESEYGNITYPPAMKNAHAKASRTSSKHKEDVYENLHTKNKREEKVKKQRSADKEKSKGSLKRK
- Method Description: SHP-1 phosphatase activity assay (RediPlate 96 EnzChek Tyrosine Phosphatase Assay kit)
- Format: biochemical
- Assay Conditions: SC derivatives at 1 μM for 2 hr; recombinant SHP-1 25 ng; control DMSO = 100; mean±SD (N=3)
- Experimental: Effects of SC Derivatives on Phosphatase Activity in Recombinant SHP-1 RediPlate 96 EnzChek Tyrosine Phosphatase Assay kit (R-22067) was used for SHP-1 activity assay (Molecular Probes). Recombinant SHP-1 protein (25 ng) was reacted with SC derivatives at 1 μM for 2 hr. Then the SHP-1 phosphatase activity assay was performed according to the user's manual and the absorbance was measured at 465 nm. The control group was DMSO, which functioned as the solvent of the SC derivatives. […]

(Q) Entry N#Cc1ccc(Oc2ccc(Cl)c(NC(=O)Nc3ccc(F)c(C(F)(F)F)c3)c2)cc1 [compound 143] , system Recombinant SHP-1 protein (Homo sapiens, UniProt P29350): what SHP-1 Activity (% of control) was measured?
(A) 198.37 ± 32.5 % of control

(Q) Entry N#Cc1ccc(Oc2ccc(F)c(NC(=O)Nc3ccc(F)c(C(F)(F)F)c3)c2)cc1 [compound 145] , system Recombinant SHP-1 protein (Homo sapiens, UniProt P29350): what SHP-1 Activity (% of control) was measured?
(A) 168.15 ± 1.97 % of control

(Q) Entry N#Cc1ccc(Oc2cc(NC(=O)Nc3ccc(F)c(C(F)(F)F)c3)ccc2Cl)cc1Cl [compound 181] , system Recombinant SHP-1 protein (Homo sapiens, UniProt P29350): what SHP-1 Activity (% of control) was measured?
(A) 106.88 ± 3.58 % of control

(Q) Entry N#Cc1ccc(Oc2ccc3c(c2)N(C(=O)Nc2cc(C(F)(F)F)cc(C(F)(F)F)c2)CCO3)cc1 [compound 158] , system Recombinant SHP-1 protein (Homo sapiens, UniProt P29350): what SHP-1 Activity (% of control) was measured?
(A) 102.07 ± 3.47 % of control

(Q) Entry Cc1ccc(NC(=O)Nc2ccc(Cl)c(C(F)(F)F)c2)cc1Oc1ccc(C#N)nc1 [compound 87] , system Recombinant SHP-1 protein (Homo sapiens, UniProt P29350): what SHP-1 Activity (% of control) was measured?
(A) 264.67 ± 32.11 % of control

(Q) Entry N#Cc1ccc(Oc2cc(NC(=O)Nc3cc(C(F)(F)F)cc(C(F)(F)F)c3)ccc2Cl)cc1 [compound 148] , system Recombinant SHP-1 protein (Homo sapiens, UniProt P29350): what SHP-1 Activity (% of control) was measured?
(A) 363.95 ± 18.11 % of control
